# Tested on: HSkMC
# test_name: cytotoxicity call (relative viability < 0.9)
# test_conditions: 10 µM
Out of some 39,000 compounds screened, about 1,500 (3.8%) were called active. Many of the other results were omitted from the sample, so actives are more common in it than they were.
// classify into active, inactive

Example results:
Exercise: How was CC[C@@H](C)CCCCC(=O)N[C@@H](CCN)C(=O)N[C@H](C(=O)N[C@@H](CCN)C(=O)N[C@H]1CCNC(=O)[C@H]([C@@H](C)O)NC(=O)[C@H](CCN)NC(=O)[C@H](CCN)NC(=O)[C@H](CC(C)C)NC(=O)[C@@H](Cc2ccccc2)NC(=O)[C@@H](CCN)NC1=O)[C@@H](C)O classified in this test?
Key: inactive

Exercise: How was O=C(C[C@H]1CC[C@H]2[C@@H](COC[C@@H](O)CN2C(=O)c2ccccc2F)O1)N1CCN(c2ccccc2)CC1 classified in this test?
Key: inactive

Exercise: How was C[C@H]1CN([C@@H](C)CO)C(=O)c2cccc(NC(=O)Nc3ccc(F)cc3)c2O[C@H]1CN(C)Cc1ccc(Cl)c(Cl)c1 classified in this test?
Key: inactive

Exercise: How was C[C@@H]1CN([C@H](C)CO)C(=O)c2cccc(NC(=O)Nc3ccc(F)cc3)c2O[C@H]1CN(C)Cc1ccc(Cl)c(Cl)c1 classified in this test?
Key: active

Exercise: How was COc1ccc(S(=O)(=O)N(C)C[C@H]2OCc3cn(nn3)CCCC(=O)N([C@@H](C)CO)C[C@H]2C)cc1 classified in this test?
Key: inactive

Now consider the entry below.
Exercise: How was C[C@@H]1CCCCO[C@@H](CN(C)C(=O)Nc2ccccc2)[C@@H](C)CN([C@H](C)CO)C(=O)c2cc(NC(=O)Nc3ccc4c(c3)OCO4)ccc2O1 classified in this test?
Key: inactive

###

# Test system: HSkMC
# test_name: cytotoxicity call (relative viability < 0.9)
# test_conditions: 10 µM
In all, about 39,000 compounds went through this assay and about 1,500 (3.8%) were called active. This is one part of a sample in which actives are shown more often than they occur.
// classify into true for active, false for inactive

Exercise: How was COC(=O)[C@@H](NC(=O)Cn1cc(COc2ccccc2/C=C(C)/C=C/C(=O)NO)nn1)c1ccccc1 classified in this test?
Key: false

Exercise: How was C[C@H]1CN([C@@H](C)CO)C(=O)Cc2cc(NC(=O)Nc3ccc(C(F)(F)F)cc3)ccc2O[C@@H]1CN(C)C(=O)Nc1ccccc1 classified in this test?
Key: false

Now consider the entry below.
Exercise: How was C[C@@H]1CN([C@@H](C)CO)C(=O)Cc2cc(NC(=O)Nc3ccccc3)ccc2O[C@@H]1CN(C)C(=O)Nc1ccc(C(F)(F)F)cc1 classified in this test?
Key: false

###

# Tested on: HSkMC (human skeletal muscle cells)
# test_name: cytotoxicity call (relative viability < 0.9)
# test_conditions: 10 µM
Screen size: about 39,000 compounds; about 1,500 (3.8%) were called active. The sample as a whole holds a higher share of actives than the screen did.
metric_name: cytotoxicity call

# example entries with known answers
Exercise: # cytotoxicity call lookup, item COc1ccc(N(C(=O)CSc2ncccn2)[C@@H](C(=O)NCCc2ccccc2)c2cccs2)cc1Cl
Key: inactive

Exercise: # cytotoxicity call lookup, item C[C@@H]1CCCCO[C@@H](CN(C)Cc2ccc(Cl)c(Cl)c2)[C@@H](C)CN([C@@H](C)CO)C(=O)c2cc(NC(=O)NC3CCCCC3)ccc2O1
Key: inactive

Exercise: # cytotoxicity call lookup, item C[C@H]1CCCCO[C@H](CN(C)Cc2ccc(Cl)c(Cl)c2)[C@@H](C)CN([C@@H](C)CO)C(=O)c2cc(NC(=O)NC3CCCCC3)ccc2O1
Key: active

Exercise: # cytotoxicity call lookup, item C[C@@H]1CCCCO[C@H](CN(C)Cc2ccc(Cl)c(Cl)c2)[C@@H](C)CN([C@H](C)CO)C(=O)c2cc(NC(=O)C3CCCCC3)ccc2O1
Key: inactive

Exercise: # cytotoxicity call lookup, item C[C@@H]1CCCCO[C@@H](CN(C)Cc2ccc(Cl)c(Cl)c2)[C@H](C)CN([C@H](C)CO)C(=O)c2cc(NC(=O)NC3CCCCC3)ccc2O1
Key: inactive

Exercise: # cytotoxicity call lookup, item O=C(NC1Cc2ccccc2C1)[C@H]1[C@H](CO)[C@H]2Cn3c(cccc3=O)[C@H]2N1C(=O)c1cnccn1
Key: inactive

Give cytotoxicity call for each listed item.
1. C[C@@H]1CCCCO[C@H](CN(C)Cc2ccc(Cl)c(Cl)c2)[C@@H](C)CN([C@H](C)CO)C(=O)c2cc(NC(=O)NC3CCCCC3)ccc2O1
2. C[C@H](CO)N1C[C@H](C)[C@H](CN(C)C(=O)CN2CCOCC2)Oc2ncc(C#C[C@@H](C)O)cc2C1=O
3. C[C@@H]1CCCCO[C@H](CN(C)Cc2ccc(Cl)c(Cl)c2)[C@@H](C)CN([C@@H](C)CO)C(=O)c2cc(NC(=O)NC3CCCCC3)ccc2O1
4. COc1ccc(N(C(=O)CCl)[C@@H](C(=O)NCCc2ccccc2)c2ccc(Cl)s2)cc1Cl
5. Nc1ccc2c(c1)nc(CO)n2CCO
6. CC(C)(C)OC(=O)NCCOCCOCCOc1ccc(N(C(=O)CCl)[C@@H](C(=O)NCCc2ccccc2)c2cccs2)cc1Cl

Key:
1. inactive
2. inactive
3. active
4. active
5. inactive
6. active

Give cytotoxicity call for each listed item.
1. C[C@@H]1CCCCO[C@H](CN(C)Cc2ccc(Cl)c(Cl)c2)[C@H](C)CN([C@@H](C)CO)C(=O)c2cc(NC(=O)C3CCCCC3)ccc2O1
2. C[C@@H]1CN([C@@H](C)CO)C(=O)c2cc(NC(=O)NC3CCCCC3)ccc2O[C@@H](C)CCCCO[C@H]1CN(C)Cc1ccc(Cl)c(Cl)c1
3. O=C(CCCl)NCCc1ccccc1

Key:
1: inactive; 2: inactive; 3: inactive
